Data provenance is patent US5464607A.

Experiment: physchem
Settings: water
Measured endpoint: solubility

Returns the measured solubility for the input compound. Input: CC(=O)N(CC(=O)NCC(O)CNC(=O)CN(C(C)=O)c1c(I)c(C(=O)NCC(O)CO)c(I)c(C(=O)NCC(O)CO)c1I)c1c(I)c(C(=O)NCC(O)CO)c(I)c(C(=O)NCC(O)CO)c1I (stereo not shown)
> 1000 mg/mL
